Taken from patent US8076329B2.

Counter-ions that a name gives are not always drawn.
QUANTITY KIND: melting point (°C)
Answer with a number only, understood to be in °C.

Consider the worked cases shown below.
| COMPOUND | melting point, °C |
| --- | --- |
| C[C@H]1CCCN(CCCOc2ccc(-c3ccnc(O)c3)cc2)C1.O=C(O)C(=O)O [Example 55] | 110 |
| CC1CCCN1CCCOc1ccc([C@H]2CC[C@H](O)CC2)cc1 (stereo partly drawn) (as salt: oxalate) [Example 66] | 80 |

Please turn your attention to the following entry.
Output melting point of O=C(O)C(=O)O.O=C(O)C(=O)O.c1cc(C2=NCCCC2)ccc1OCCCN1CCCCC1 [Example 15]
104

###

Molecular target: CYP3A4 (Homo sapiens)
Assay: Cytochrome inhibition, fluorometric microtiter plate assay
Assay type: in vitro ADME
Conditions: CYP3A4 cytochrome inhibition (IC50, concentrations in μM for 50% inhibition), human recombinant CYP3A4, substrate BFC; compounds of the invention
Cut-off 8 µM on IC50: below means Satisfied, at or above means Not satisfied.

Recorded results for 3 compounds are shown here.
| COMPOUND | ASSAY TARGET | CATEGORY |
| --- | --- | --- |
| c1cncc(-c2ccc(OCCCN3CCCCC3)cc2)c1 | CYP3A4 (Homo sapiens) | Not satisfied |
| C=CCC(O)(CC=C)c1ccc(OCCCN2CCCCC2)cc1 | CYP3A4 (Homo sapiens) | Satisfied |
| CCCC(O)(CCC)c1ccc(OCCCN2CCCCC2)cc1 | CYP3A4 (Homo sapiens) | Satisfied |

A record lists `CN1CCN(c2ccc(-c3ccc(OCCCN4CCCCC4)cc3)cc2)CC1` . Is its IC50 below 8 µM?
Not satisfied

A record lists `c1cc(-c2ccc(OCCCN3CCCC3)cc2)ccc1OCCCN1CCCC1` . Is its IC50 below 8 µM?
Not satisfied

A record lists `C[C@H]1C[C@H](C)CN(CCCOc2ccc(-c3ccccc3)cc2)C1` . Is its IC50 below 8 µM?
Satisfied

A record lists `CN1CCC(CCOCc2ccc(OCCCN3CCCCC3)cc2)CC1` . Is its IC50 below 8 µM?
Not satisfied

A record lists C=C(C)c1ccc(OCCCN2C[C@@H](C)C[C@H](C)C2)cc1 (relative stereo) . Is its IC50 below 8 µM?
Not satisfied

###

Biological target: CYP2D6 (Homo sapiens, UniProt P10635)
Sequence (P10635 whole entry): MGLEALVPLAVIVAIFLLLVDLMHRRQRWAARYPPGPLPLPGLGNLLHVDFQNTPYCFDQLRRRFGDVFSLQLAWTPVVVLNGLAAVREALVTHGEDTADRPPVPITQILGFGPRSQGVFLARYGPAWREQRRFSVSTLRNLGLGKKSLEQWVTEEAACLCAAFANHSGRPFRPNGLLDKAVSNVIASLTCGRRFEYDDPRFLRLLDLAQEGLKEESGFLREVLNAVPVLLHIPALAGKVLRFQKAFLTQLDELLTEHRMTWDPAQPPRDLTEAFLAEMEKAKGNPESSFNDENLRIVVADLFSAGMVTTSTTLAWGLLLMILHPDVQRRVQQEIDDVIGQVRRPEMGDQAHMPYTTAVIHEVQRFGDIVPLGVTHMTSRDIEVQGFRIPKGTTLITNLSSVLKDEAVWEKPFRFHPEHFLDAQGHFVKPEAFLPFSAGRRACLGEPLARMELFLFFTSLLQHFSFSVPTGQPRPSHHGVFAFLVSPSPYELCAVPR
Test: Cytochrome inhibition, fluorometric microtiter plate assay
Format: in vitro ADME
Conditions: CYP2D6 cytochrome inhibition (IC50, concentrations in μM for 50% inhibition), human recombinant CYP2D6, substrate AMMC; compounds of the invention
// values below are reported IC50

| MOLECULE | QUANTITY KIND | RESULT |
| --- | --- | --- |
| C[C@@H]1C[C@@H](C)CN(CCCOc2ccc(-c3ccccc3)cc2)C1 (relative stereo) [Example 22] | IC50 | 13 µM |
| C(=C\c1ccc(-c2ccc(OCCCN3CCCCC3)cc2)cc1)/CN1CCCCC1 [Example 44] | IC50 | > 10 µM |
| C[C@H]1CCCN(CCCOc2ccc(-c3ccnc(Cl)c3)cc2)C1.O=C(O)C(=O)O.O=C(O)C(=O)O [Example 56] | IC50 | > 10 µM |

Output IC50 of C[C@H]1C[C@H](C)CN(CCCOc2ccc([C@H]3CC[C@H](N(C)C)CC3)cc2)C1 [Example 12]
> 10 µM

Output IC50 of c1cc(-c2ccc(OCCCN3CCCC3)cc2)ccc1OCCCN1CCCCC1 [Example 37]
> 10 µM

Output IC50 of CN1CCC(COCc2ccc(OCCCN3CCCCC3)cc2)CC1 [Example 68]
> 10 µM

Output IC50 of COc1ccc(-c2ccc(OCCCN3CCCCC3)cc2)cc1 [Example 25]
> 10 µM

Output IC50 of OC1(c2ccc(OCCCN3CCCCC3)cc2)CCCC1 [Example 8]
> 100 µM

Output IC50 of c1cc(-c2ccc(OCCCN3CCCCC3)cc2)ccc1CN1CCCCC1 [Example 42]
> 10 µM

###

// values below are reported IC50
Target: CYP2D6 (Homo sapiens, UniProt P10635)
Test: Cytochrome inhibition, fluorometric microtiter plate assay
Type: in vitro ADME
Conditions: CYP2D6 cytochrome inhibition (IC50, concentrations in μM for 50% inhibition), human recombinant CYP2D6, substrate AMMC; compounds of the invention
Protocol: The ability of drug in human to inhibit the catalytic activity of cytochrome P-450 isoforms was assayed using microtiter plate-based, fluorometric assays for the activities of the five human major CYP forms. […]

Consider the worked cases shown below.
| COMPOUND | IC50 |
| --- | --- |
| c1cc(-c2ccc(OCCCN3CCCC3)cc2)ccc1OCCCN1CCCC1 [Example 38] | > 10 µM |
| O[C@H]1CC[C@H](c2ccc(OCCCN3CCCCC3)cc2)CC1 [Example 65] | > 10 µM |
| CN(C)[C@H]1CC[C@@H](Cc2ccc(OCCCN3CCCCC3)cc2)CC1 [Example 47] | 107 µM |

Output IC50 of Cc1ccc(-c2ccc(OCCCN3C[C@@H](C)C[C@H](C)C3)cc2)cc1 (relative stereo) [Example 27]
> 10 µM

###

Counter-ions that a name gives are not always drawn.
Cut-off 100 °C on melting point: below means fulfilled, at or above means not fulfilled.

Recorded results for 5 molecules are shown here.
| MOLECULE | CATEGORY |
| --- | --- |
| C(#Cc1ccc(OCCCN2CCCCC2)cc1)CCN1CCCCC1.O=C(O)C(=O)O.O=C(O)C(=O)O | not fulfilled |
| Cc1ccc(-c2ccc(OCCCN3CCCCC3)cc2)cc1.O=C(O)C(=O)O | not fulfilled |
| c1cc(-c2ccc(OCCCN3CCCCC3)cc2)ccc1CN1CCCCC1 | fulfilled |
| c1cc(-c2ccc(OCCCN3CCCCC3)cc2)ccc1CCCN1CCCCC1 (as salt: oxalate) | not fulfilled |
| C[C@H]1C[C@H](C)CN(CCCOc2ccc([C@H]3CC[C@H](N(C)C)CC3)cc2)C1 (as salt: hydrochloride) | not fulfilled |

Would you kindly look at the next entry?
A record lists `C[C@H]1CCCN(CCCOc2ccc(-c3ccnc(Cl)c3)cc2)C1.O=C(O)C(=O)O.O=C(O)C(=O)O` . Is its melting point below 100 °C?
not fulfilled

###

Target: UniProt:P08684
Assay: Cytochrome inhibition, fluorometric microtiter plate assay
Assay type: in vitro ADME
Settings: human, recombinant human CYP3A4, probe BFC, CYP3A4 cytochrome inhibition (IC50, concentrations in μM for 50% inhibition), human recombinant CYP3A4, substrate BFC; compounds of the invention
QUANTITY KIND: IC50 (µM)
Answer with a number only, understood to be in µM.

| COMPOUND | UNITS SYMBOL | IC50 |
| --- | --- | --- |
| C[C@@H]1C[C@@H](C)CN(CCCOc2ccc(-c3cc[nH]n3)cc2)C1 (relative stereo) | µM | 10 |

Please turn your attention to the following entry.
Output IC50 of `Cc1ccccc1-c1ccc(OCCCN2CCCCC2)cc1`
10

###

Target: UniProt P08684
Test: Cytochrome inhibition, fluorometric microtiter plate assay
Format: in vitro ADME
Conditions: CYP3A4 cytochrome inhibition (IC50, concentrations in μM for 50% inhibition), human recombinant CYP3A4, substrate BFC; compounds of the invention
// values below are reported IC50

| COMPOUND | IC50 |
| --- | --- |
| CN1CCC(COCc2ccc(OCCCN3CCCCC3)cc2)CC1 [Example 68] | > 10 µM |
| Cc1cc(-c2ccc(OCCCN3CCC[C@H](C)C3)cc2)cc[n+]1[O-] [Example 54] | > 1 µM |

Please turn your attention to the following entry.
Output IC50 of C[C@H]1C[C@H](C)CN(CCCOc2ccc(C(=O)N3CCCC3)cc2)C1 (relative stereo) [Example 2]
> 10 µM

###

Target: CYP2D6 (Homo sapiens)
Assay: Cytochrome inhibition, fluorometric microtiter plate assay
Type: in vitro ADME
Details: CYP2D6 cytochrome inhibition (IC50, concentrations in μM for 50% inhibition), human recombinant CYP2D6, substrate AMMC; compounds of the invention
QUANTITY KIND: IC50

Output IC50 of C[C@@H]1C[C@@H](C)CN(CCCOc2ccc(-c3cc[nH]n3)cc2)C1 (relative stereo)
20 µM

###

// values below are reported IC50
Biological target: CYP3A4 (Homo sapiens, UniProt P08684)
Sequence (P08684 whole entry): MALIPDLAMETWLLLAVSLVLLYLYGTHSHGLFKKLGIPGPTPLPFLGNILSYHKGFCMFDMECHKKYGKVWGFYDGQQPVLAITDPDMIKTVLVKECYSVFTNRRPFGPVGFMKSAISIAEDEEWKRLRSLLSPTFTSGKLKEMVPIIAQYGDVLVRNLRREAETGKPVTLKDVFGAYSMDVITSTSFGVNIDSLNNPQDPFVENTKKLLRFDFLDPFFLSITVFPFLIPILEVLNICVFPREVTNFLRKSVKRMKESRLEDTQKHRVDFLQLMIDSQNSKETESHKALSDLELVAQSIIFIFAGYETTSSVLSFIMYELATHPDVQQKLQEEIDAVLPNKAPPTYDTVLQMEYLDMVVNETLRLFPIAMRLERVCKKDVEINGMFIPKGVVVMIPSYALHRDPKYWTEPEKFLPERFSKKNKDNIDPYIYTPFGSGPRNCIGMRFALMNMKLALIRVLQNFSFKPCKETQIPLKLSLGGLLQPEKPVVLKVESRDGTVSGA
Assay: Cytochrome inhibition, fluorometric microtiter plate assay
Type: in vitro ADME
Details: CYP3A4 cytochrome inhibition (IC50, concentrations in μM for 50% inhibition), human recombinant CYP3A4, substrate BFC; compounds of the invention

| MOLECULE | RESULT |
| --- | --- |
| O[C@H]1CC[C@H](c2ccc(OCCCN3CCCC3)cc2)CC1 | > 10 µM |
| C[C@H]1CCCN(CCCOc2ccc(C3CCC(C)(O)CC3)cc2)C1 (stereo partly drawn) | > 10 µM |
| CN1CCC(OCc2ccc(OCCCN3CCCCC3)cc2)CC1 | > 10 µM |
| Cc1cc(-c2ccc(OCCCN3CCC[C@H](C)C3)cc2)ccn1.O=C(O)C(=O)O.O=C(O)C(=O)O | > 10 µM |
| C[C@H]1CCCN(CCCOc2ccc(-c3ccnc(O)c3)cc2)C1.O=C(O)C(=O)O | > 10 µM |
| C[C@H]1CCCN(CCCOc2ccc(-c3ccnc(OCCCN4CCCCC4)c3)cc2)C1 | > 10 µM |
| CC1CCCN(CCCOc2ccc(C(C)(C)O)cc2)C1 (racemic) | > 10 µM |
| c1cc(-c2ccc(OCCCN3CCCCC3)cc2)cs1 | > 100 µM |
| COc1ccc(-c2ccc(OCCCN3CCCCC3)cc2)cc1 | > 10 µM |
| C[C@@H]1C[C@@H](C)CN(CCCOc2ccc(Oc3ccccc3)cc2)C1 (relative stereo) | > 10 µM |

Output IC50 of `c1ccc(-c2ccc(OCCCN3CCCC3)cc2)cc1`
> 10 µM

Output IC50 of `C(#Cc1ccc(OCCCN2CCCCC2)cc1)CCN1CCCCC1.O=C(O)C(=O)O.O=C(O)C(=O)O`
> 10 µM

Output IC50 of Cc1ccc(-c2ccc(OCCCN3C[C@@H](C)C[C@H](C)C3)cc2)cc1 (relative stereo)
> 1 µM
